Tested on: SF-539 CNS
Respond with a class label; see 1 for active, -1 for inactive

1. COc1ccc(/C=C/C(=O)c2ccc(OC)c(S(N)(=O)=O)c2)c(C(F)(F)F)c1    -1
2. COc1cc2cc(C(=O)N3C[C@@H](CCl)c4c3cc(OC(=O)N(CCC(=O)N3CCN(C)CC3)C3CCCCC3)c3ccccc43)[nH]c2c(OC)c1OC    -1
3. C[C@H]1[C@H](OC(=O)CCC(=O)N(CCCc2cn(-c3ccc(CN4CCOCC4)cc3)nn2)CCNc2ccnc3cc(Cl)ccc23)O[C@@H]2OC3(C)CC[C@H]4[C@H](C)CC[C@@H]1[C@@]24OO3    -1
4. O=C(Cc1ccc2c(c1)CN(C1CCC(=O)NC1=O)C2=O)NCc1cccc2ccccc12 (stereo not given)    1

Task: Assay outcome for CCCCCCn1c(O)c(N=Nc2nc(-c3cc4ccccc4oc3=O)cs2)c2ccccc21 : what was it?
Output: -1

###

Tested on: MDA-MB-468 breast
Form entry, call: pick from active, inactive

Below are worked cases with known answers.
1) O=C(Cc1ccc2c(c1)CN(C1CCC(=O)NC1=O)C2=O)NCc1cccc2ccccc12 (stereo not given)    active
2) Fc1ccc(-c2nc(C(Cl)Cl)nc3cc(-c4ccccc4)nn23)cc1    inactive
3) CS(=O)(=O)Nc1ccc(Nc2c3ccccc3nc3cc([N+](=O)[O-])ccc23)cc1    active
4) CCN(Cc1cccnc1)c1ccc(CO)c(Cl)c1    active
5) Cc1ccc(C(=Nc2ccccc2)N=P(c2ccccc2)(c2ccccc2)c2ccccc2)cc1    inactive

Task: In this assay, the call recorded for OCc1cn(Cc2ccc(Cl)cc2)c2ccccc12 was what?
Output: active

Task: Look up the recorded call for COc1cc(/C=C2\CN(S(=O)(=O)c3ccc(C)cc3)C/C(=C\c3cc(CN4CCOCC4)c(O)c(OC)c3)C2=O)cc(CN2CCOCC2)c1O in this test.
Output: inactive

Task: Tell me the assay call for C[C@H]1[C@H](OC(=O)CCC(=O)N(CCCc2cn(-c3ccc(CN4CCOCC4)cc3)nn2)CCNc2ccnc3cc(Cl)ccc23)O[C@@H]2OC3(C)CC[C@H]4[C@H](C)CC[C@@H]1[C@@]24OO3 please.
Output: inactive

Task: For this compound, state the assay outcome: Nc1ccn(C2OC(CO)C(O)C2(F)F)c(=O)n1 (stereo not given)
Output: active

Task: // outcome(item) with item = Cc1nc2ccc(Nc3nc(Cl)nc(Nc4ccc(F)cc4)n3)cc2n1Cc1ccccc1
Output: inactive

###

System: PC-3 prostate
method: NCI tumour cell line growth inhibition, 48 h
For each entry below, report its TGI value.
Give bare numbers, in µM.

1. CCCCCCn1c(O)c(N=Nc2nc(-c3cc4ccccc4oc3=O)cs2)c2ccccc21    23.5

Task: Could you please provide reported TGI for COc1ccc(/C=C/C(=O)c2ccc(OC)c(S(N)(=O)=O)c2)c(C(F)(F)F)c1 ? Thanks!
Output: 18.5

###

Tested on: MDA-MB-468 breast
method: NCI tumour cell line growth inhibition, 48 h
Exercise: for every item that follows, state its recorded TGI.
Numbers only, in nM.

// solved cases for TGI follow
1) Cc1ccc(/C=C2\COc3ccc(O)c(O)c3C2=O)cc1    2990
2) OCCCc1n(Cc2ccc3ccccc3c2)c2ccccc2[n+]1Cc1ccc2ccccc2c1    1370
3) CCOC(=O)C1=C(C)N=C2SC=C(c3ccccc3)N2[C@H]1c1cn[nH]c1-c1ccc(Cl)cc1    16600

Parameters: items (list). Returns: TGI for each item.
1. Fc1ccc(-c2nc(C(Cl)Cl)nc3cc(-c4ccccc4)nn23)cc1
2. COC1C(O)CC(OC2CC(OC3CC(O[C@@H]4C(=O)c5c(cc6cc(OC7CC(OC8CC(O)C(O)C(C)O8)C(O)C(C)O7)c(C)c(O)c6c5O)CC4[C@H](OC)C(=O)C(C)=O)OC(C)C3O)OC(C)C2O)OC1C (some centres undefined)
3. Nc1ccn(C2OC(CO)C(O)C2(F)F)c(=O)n1 (centres undefined)
4. Nc1ncc(-c2ccc3ncnc(N4CCc5ccc(Cl)cc54)c3c2)cn1
5. O=C1Nc2ccccc2/C1=C/C(=O)c1ccc(N2CCCC2)cc1

Output:
1. 4950
2. 52.1
3. 55.8
4. 2080
5. 6590

###

Test system: SNB-75 CNS
method: NCI tumour cell line growth inhibition, 48 h
propertyMeasured: GI50

Consider the worked cases shown below.
1. COc1ccc(/C=C/C(=O)c2ccc(OC)c(S(N)(=O)=O)c2)c(C(F)(F)F)c1    3.22 µM
2. C[C@H]1[C@H](OC(=O)CCC(=O)N(CCCc2cn(-c3ccc(CN4CCOCC4)cc3)nn2)CCNc2ccnc3cc(Cl)ccc23)O[C@@H]2OC3(C)CC[C@H]4[C@H](C)CC[C@@H]1[C@@]24OO3    11.6 µM
3. CCCCCCn1c(O)c(N=Nc2nc(-c3cc4ccccc4oc3=O)cs2)c2ccccc21    12 µM

Below: the item to evaluate.
Task: // output GI50; input COc1cc2cc(C(=O)N3C[C@@H](CCl)c4c3cc(OC(=O)N(CCC(=O)N3CCN(C)CC3)C3CCCCC3)c3ccccc43)[nH]c2c(OC)c1OC ; system SNB-75 CNS
Output: 1.29 µM
